# TEST_NAME: MDA-MB-436 breast carcinoma cell growth inhibition, synergistic combos for chromothripsis tumors, BGB or cisplatin combos (AID 1671458);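 further: cells exposed for 96 hours; 0% = vehicle DMSO and 100% = killing by high DMSO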
# CONDITION_SET: MDA-MB-436 breast carcinoma growth inhibition, drug combinations; measured here: BGB combination; at 0.5 µM; stronger effect = higher value
Catalogue of inhibition readings, one per entry.
Answer with a number only, understood to be in %.

>  <COMPOUND>
O=C(O)CCCc1ccccc1

>  <EXPERIMENTAL_VALUE>
-6.89

$$$$
>  <COMPOUND>
CCn1cc(C(=O)O)c(=O)c2cc(F)c(N3CCNCC3)cc21

>  <EXPERIMENTAL_VALUE>
-12.8

$$$$
>  <COMPOUND>
CC(=O)OCC(CCn1cnc2cnc(N)nc21)COC(C)=O

>  <EXPERIMENTAL_VALUE>
-5.73

$$$$
>  <COMPOUND>
O=c1[nH]cc(F)c(=O)[nH]1

>  <EXPERIMENTAL_VALUE>
-27.5

$$$$

In the following, a different compound is considered.
Query: What inhibition value was documented for this compound, CCN(CC)CCCC(C)Nc1c2ccc(Cl)cc2nc2ccc(OC)cc12 (stereo not given) ?
Reply: -0.472

The measurements presented in this section are drawn from PubChem BioAssay.
